# credit: ChEMBL document CHEMBL1124898

Listed here: items and their measured inhibition in vivo at 300 mg/kg.
- ASSAY: Antitumor activity in vivo against the 6C3HED lymphosarcoma, dosed for 8 days at 300 mg/kg
- CONDITION_INFO: Mus musculus, 192 h
MEASURED_QUANTITY: inhibition in vivo at 300 mg/kg (%)

1. Cc1ccc(S(=O)(=O)NC(=O)Nc2ccc(F)c(F)c2)cc1 :: 60
2. Cc1ccc(S(=O)(=O)NC(=O)NC2CCCCC2)cc1 [GLYCYCLAMIDE] :: 56
3. CCCCc1ccc(NC(=O)NS(=O)(=O)c2ccc(C)cc2)cc1 :: 8
4. Cc1ccc(S(=O)(=O)NC(=O)Nc2ccccc2C)cc1 :: 32
5. O=C(Nc1ccc(Cl)cc1)NS(=O)(=O)c1ccc2c(c1)CCC2 [SULOFENUR] :: 100
